For each record, write down the corresponding Ki.
- target system: human NK3 receptor (Homo sapiens)
- Construct: expressed in transfected cells
- Sequence (P29371 whole entry): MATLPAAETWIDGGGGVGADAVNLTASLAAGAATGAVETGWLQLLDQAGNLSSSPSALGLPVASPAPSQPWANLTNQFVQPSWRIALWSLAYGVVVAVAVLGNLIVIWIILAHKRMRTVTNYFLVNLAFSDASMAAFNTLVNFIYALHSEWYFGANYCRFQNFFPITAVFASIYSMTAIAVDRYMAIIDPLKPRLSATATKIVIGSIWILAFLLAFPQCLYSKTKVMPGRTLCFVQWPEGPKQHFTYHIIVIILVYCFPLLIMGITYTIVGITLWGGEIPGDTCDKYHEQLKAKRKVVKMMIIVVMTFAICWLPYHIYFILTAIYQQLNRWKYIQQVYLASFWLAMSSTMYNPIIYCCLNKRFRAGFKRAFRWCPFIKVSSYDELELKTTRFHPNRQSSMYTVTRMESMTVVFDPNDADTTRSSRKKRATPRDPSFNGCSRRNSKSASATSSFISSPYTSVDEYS
- test details: NK3 receptor binding assay (SPA competition binding, 125I-NKB)
- setup conditions: read-out: Affinity (Ki/nM)
Just the number please, in nM, no unit attached.

Q: Suppose we examine the molecule Cc1c(C(=O)N[C@H](c2cccc(F)c2)C2CC2)c2cccc(F)c2c(=O)n1[C@@H]1CCNC1 [Example 5g] ; what Ki value has been reported?
A: 180

Q: Again, but for Cc1c(C(=O)N[C@H](c2cccc(F)c2)C2CCC2)c2cccc(F)c2c(=O)n1[C@H]1CCOC1 [Example 4r]
A: 170
